Cited source: the supplement of paper PMC7125110

Entries and their self-cleavage kobs at 160 uM GlcN6P values follow.
B1: glmS ribozyme (parent)
chain: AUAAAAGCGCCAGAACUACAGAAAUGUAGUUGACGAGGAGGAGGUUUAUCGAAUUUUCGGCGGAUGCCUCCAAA

Variants of: B1
experimental protocol: self-cleavage kobs at 160 uM GlcN6P; higher = faster cleavage; RNA array
experimental context: with glucosamine-6-phosphate
This sample holds only a part of the variants without activity.
A number alone suffices; assume s⁻¹.

Here are 10 variants together with their reported answers.
mutation code | self-cleavage kobs at 160 uM GlcN6P, s⁻¹
A15G C68A | 3.62e-05
A12G G40A | 1.6e-05
C10A U55A C67G | 6.55e-05
A12C U54A | 0.00199
C50G U57C | 4.88e-05
C16U C70A | 7.15e-05
U31C U45A | 0.000613
U47A C68U | 0.000161
G29U A39G | 0.000723
A42G U47C | 0.000257

Find the recorded self-cleavage kobs at 160 uM GlcN6P belonging to A42G U47A and report it. 0.00279

Endpoint output: self-cleavage kobs at 160 uM GlcN6P of U49G A53U . Value? 2.84e-05

What value of measured self-cleavage kobs at 160 uM GlcN6P is listed for G37A C50G C71A ? 0.000356
